TESTED_ON: UniProt P49881
Sequence (P49881 whole entry): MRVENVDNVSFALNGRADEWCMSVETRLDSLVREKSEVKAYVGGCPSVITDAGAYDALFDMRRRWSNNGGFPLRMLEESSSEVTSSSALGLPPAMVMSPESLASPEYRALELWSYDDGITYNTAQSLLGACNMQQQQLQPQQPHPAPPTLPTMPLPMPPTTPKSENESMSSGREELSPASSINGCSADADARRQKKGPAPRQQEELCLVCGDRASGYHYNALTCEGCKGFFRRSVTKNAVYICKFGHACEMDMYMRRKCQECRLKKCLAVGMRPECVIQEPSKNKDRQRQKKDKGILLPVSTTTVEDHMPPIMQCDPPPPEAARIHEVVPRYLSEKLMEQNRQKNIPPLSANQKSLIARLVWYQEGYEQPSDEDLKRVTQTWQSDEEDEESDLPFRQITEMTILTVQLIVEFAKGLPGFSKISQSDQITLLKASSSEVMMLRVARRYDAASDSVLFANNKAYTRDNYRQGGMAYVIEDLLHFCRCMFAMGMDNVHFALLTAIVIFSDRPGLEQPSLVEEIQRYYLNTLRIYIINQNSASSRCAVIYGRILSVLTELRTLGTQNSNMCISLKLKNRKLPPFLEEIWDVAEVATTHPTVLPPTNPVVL
ASSAY_REMARKS: Agonist activity at ecdysone receptor in Bombyx mori Bm5 cells after 24 hr by luciferase reporter gene assay
PROPERTY: pEC50
One number for each entry, as −log10 of the molar value.

Cc1cc(C)cc(C(=O)N(NC(=O)c2ccc(Cl)cc2)C(C)(C)C)c1 : 7.72
CCc1ccc(C(=O)NN(C(=O)C2CCCCC2)C(C)(C)C)cc1 : 5.03
Cc1cc(C)cc(C(=O)NN(C(=O)CCC(C)C)C(C)(C)C)c1 : 4.84

Need pEC50 for each of these compounds.
1. Cc1cccc(C(=O)NN(C(=O)c2ccccc2Cl)C(C)(C)C)c1
2. CC(C)(C)N(NC(=O)c1ccccc1)C(=O)c1ccccc1Br
3. CCc1ccc(C(=O)NN(C(=O)c2cccc3ccccc23)C(C)(C)C)cc1
4. CC(C)(C)N(NC(=O)c1ccccc1Br)C(=O)c1ccccc1Cl
5. CC(C)(C)N(NC(=O)c1ccc(F)cc1)C(=O)c1ccccc1Cl
6. CCCCCCC(=O)N(NC(=O)c1ccc(CC)cc1)C(C)(C)C
7. CC(C)(C)N(NC(=O)c1ccccc1)C(=O)c1ccc(Cl)cc1Cl
8. CCCCCCC(=O)N(NC(=O)c1ccccc1)C(C)(C)C

Result:
1: 6.22; 2: 6.77; 3: 7.88; 4: 6.50; 5: 6.41; 6: 4.93; 7: 6.93; 8: 5.14

Need pEC50 for each of these compounds.
1. CCOc1cccc(C(=O)NN(C(=O)c2cc(C)cc(C)c2)C(C)(C)C)c1C
2. CC(C)(C)N(NC(=O)c1cccc(F)c1)C(=O)c1ccccc1Cl
3. CC(C)(C)N(NC(=O)c1ccccc1)C(=O)c1ccccc1I
4. Cc1ccc(C)c(C(=O)NN(C(=O)c2ccccc2Cl)C(C)(C)C)c1

Result:
1: 7.28; 2: 7.16; 3: 6.98; 4: 5.79

Need pEC50 for each of these compounds.
1. COc1cccc(C(=O)NN(C(=O)c2cc(C)cc(C)c2)C(C)(C)C)c1C [METHOXYFENOZIDE]
2. COc1ccc(C(=O)NN(C(=O)c2ccccc2Cl)C(C)(C)C)cc1

Result:
[8.22, 7.29]

Need pEC50 for each of these compounds.
1. CCCCCC(=O)N(NC(=O)c1cc(C)cc(C)c1)C(C)(C)C
2. CC(C)(C)N(NC(=O)c1ccccc1)C(=O)c1ccccc1C(F)(F)F
3. CC(C)(C)N(NC(=O)c1ccc(C#N)cc1)C(=O)c1ccccc1Cl

Result:
1. 5.06
2. 6.20
3. 6.22

The compound COc1cccc(C(=O)NN(C(=O)c2ccccc2Cl)C(C)(C)C)c1 , tested on UniProt P49881, showed pEC50 of 7.28
